The entries below come with measured percent inhibition of rat DGAT2 values attached.
tested on: rat DGAT2 mRNA; assay: Dose-dependent inhibition of DGAT2 in A10 cells (Tables 82, 83); type: cell-based; settings: 50 nM (Table 83)
Strand notation (5' to 3'): a small letter for the sugar, then the base; units joined by * are phosphorothioate-linked, units joined directly phosphodiester-linked; [ ] holds rarer units or linkages, { } end groups; capitals alone tell only the bases. e = 2'-O-(2-methoxyethyl) (MOE); [5mC] = 5-methylcytosine; d = 2'-deoxy (DNA)
Quick note: give the figure in %, leave out the unit.

>>> result_value("372524 (antisense eG*e[5mC]*e[5mC]*dA*dG*dG*d[5mC]*dA*dT*dG*dG*dA*dG*e[5mC]*eT*e[5mC]) [compound 372524]")
68
>>> result_value("372501 (antisense eT*eT*eG*dT*dG*dT*dG*dT*d[5mC]*dT*dT*d[5mC]*dA*e[5mC]*e[5mC]*eA) [compound 372501]")
25
>>> result_value("372516 (antisense eT*eA*e[5mC]*dA*dG*dA*dA*dG*dG*d[5mC]*dA*d[5mC]*d[5mC]*e[5mC]*eA*eG) [compound 372516]")
35

Here is the next item to consider.
-- ask What does the data say about its percent inhibition of rat DGAT2? Entry: 372546 (antisense eT*eT*eG*dG*dT*d[5mC]*dT*dT*dG*dT*dG*dA*dT*eT*eG*eT) [compound 372546]
-- reply 48

* * *

The entries below come with measured % Inhibition values attached.
test system: PTP1B mRNA; assay: Dose response for human PTP1B in HuVEC cells, PPS 198 and PPS 3000 (Tables 86, 87); type: cell-based; details: PPS 3000, 30.0 nM
Strand notation (5' to 3'): a small letter for the sugar, then the base; units joined by * are phosphorothioate-linked, units joined directly phosphodiester-linked; [ ] holds rarer units or linkages, { } end groups; capitals alone tell only the bases. e = 2'-O-(2-methoxyethyl) (MOE); [5mC] = 5-methylcytosine; d = 2'-deoxy (DNA)
Quick note: give the figure in %, leave out the unit.

>>> result_value("398112 (e[5mC]*eA*dG*d[5mC]*d[5mC]*dT*dG*dG*d[5mC]*dA*d[5mC]*d[5mC]*eT*eA) [compound 398112]")
94

-- ask What does the data say about its % Inhibition? Entry: 399173 (eA*eT*dG*d[5mC]*dT*dA*dG*dT*dG*d[5mC]*dA*d[5mC]*eT*eA; antisense) [compound 399173]
-- reply 92

-- ask Follow-up item: 398120 (eG*eT*dT*d[5mC]*dA*dA*dG*d[5mC]*dG*dG*d[5mC]*d[5mC]*eT*eA) [compound 398120]
-- reply 93

-- ask Follow-up item: 399102 (eG*eA*dA*dG*dT*d[5mC]*dA*d[5mC]*dT*dG*dG*d[5mC]*eT*eT; antisense) [compound 399102]
-- reply 87

-- ask Follow-up item: 398105 (eT*eG*d[5mC]*dA*d[5mC]*dA*dG*dG*d[5mC]*dA*dG*dG*eT*eT) [compound 398105]
-- reply 93

-- ask Follow-up item: 399113 (eG*eT*dT*dA*dG*dG*d[5mC]*dA*dA*dA*dG*dG*eG*e[5mC]; antisense) [compound 399113]
-- reply 90

-- ask Follow-up item: 398173 (e[5mC]*dA*dG*d[5mC]*d[5mC]*dT*dG*dG*dG*d[5mC]*dA*e[5mC]) [compound 398173]
-- reply 90

* * *

tested on: PTP1B mRNA; test: Dose response for human PTP1B in HuVEC cells, PPS 198 and PPS 3000 (Tables 86, 87); type: cell-based; settings: PPS 3000, 3.33 nM
Strand notation (5' to 3'): a small letter for the sugar, then the base; units joined by * are phosphorothioate-linked, units joined directly phosphodiester-linked; [ ] holds rarer units or linkages, { } end groups; capitals alone tell only the bases. e = 2'-O-(2-methoxyethyl) (MOE); [5mC] = 5-methylcytosine; d = 2'-deoxy (DNA)
outcome.measure: % Inhibition (%)
Quick note: give the figure in %, leave out the unit.

>>> result_value("399276 (eG*eA*dG*dG*dT*dA*dT*d[5mC]*d[5mC]*d[5mC]*dA*dT*e[5mC]*eT; antisense) [compound 399276]")
14
>>> result_value("399315 (antisense eG*eG*d[5mC]*dA*dA*d[5mC]*dT*dT*d[5mC]*dA*dA*d[5mC]*e[5mC]*eT) [compound 399315]")
25
>>> result_value("399096 (eT*eG*d[5mC]*dT*d[5mC]*dG*dA*dA*d[5mC]*dT*d[5mC]*d[5mC]*eT*eT; antisense) [compound 399096]")
23
>>> result_value("399208 (eA*eG*d[5mC]*dT*d[5mC]*dG*d[5mC]*dT*dA*d[5mC]*d[5mC]*dT*e[5mC]*eT; antisense) [compound 399208]")
47
>>> result_value("398112 (e[5mC]*eA*dG*d[5mC]*d[5mC]*dT*dG*dG*d[5mC]*dA*d[5mC]*d[5mC]*eT*eA) [compound 398112]")
26

-- ask What does the data say about its % Inhibition? Entry: 398173 (e[5mC]*dA*dG*d[5mC]*d[5mC]*dT*dG*dG*dG*d[5mC]*dA*e[5mC]) [compound 398173]
-- reply 18

-- ask Follow-up item: 399113 (eG*eT*dT*dA*dG*dG*d[5mC]*dA*dA*dA*dG*dG*eG*e[5mC]; antisense) [compound 399113]
-- reply 9

* * *

Test system: SGLT2 mRNA
Assay: SGLT2 mRNA in kidney of Balb/c mice, twenty 1-10-1 MOE gapmers, PPS 534 and PPS 553 (Table 74)
Type: in vivo, mouse
Conditions: i.p. 350 nmol/kg twice per week for two weeks, primer probe set 534, normalized to cyclophilin
Method: Twenty 1-10-1 MOE gapmers that are complementary to human/monkey/mouse/rat SGLT2 were designed, synthesized and tested in vivo for suppression of SGLT2 mRNA levels in kidney. […] Mice were sacrificed 48 hours following the last administration and evaluated for SGLT2 mRNA levels in kidney. SGLT2 mRNA levels were determined by quantitative real-time PCR analysis according to standard procedures, using two different PCR primer probe sets, primer probe set (PPS) 534 and PPS 553. […]
Strand notation (5' to 3'): a small letter for the sugar, then the base; units joined by * are phosphorothioate-linked, units joined directly phosphodiester-linked; [ ] holds rarer units or linkages, { } end groups; capitals alone tell only the bases. e = 2'-O-(2-methoxyethyl) (MOE); [5mC] = 5-methylcytosine; d = 2'-deoxy (DNA)
outcome.measure: % change in SGLT2 mRNA vs saline (% Saline)
Quick note: give the figure in % Saline, leave out the unit.

Here are 8 substances together with their reported answers.
>>> result_value("379690 (antisense eA*d[5mC]*dA*dG*dG*dT*dA*dG*dA*dG*dG*e[5mC]) [compound 379690]")
"−18.9"
>>> result_value("379699 (eG*dG*d[5mC]*dA*dT*dG*dA*dG*d[5mC]*dT*dT*e[5mC]) [compound 379699]")
"−83.5"
>>> result_value("379698 (eG*d[5mC]*dA*dG*d[5mC]*d[5mC]*d[5mC]*dA*d[5mC]*d[5mC]*dT*e[5mC]) [compound 379698]")
"−11.8"
>>> result_value("379703 (eG*d[5mC]*d[5mC]*dG*dG*dA*dG*dA*d[5mC]*dT*dG*eA; antisense) [compound 379703]")
"−44.2"
>>> result_value("379694 (antisense eG*dA*d[5mC]*dG*dA*dA*dG*dG*dT*d[5mC]*dT*eG) [compound 379694]")
"−42.1"
>>> result_value("379687 (antisense eG*dA*dT*dG*dT*dT*dG*d[5mC]*dT*dG*dG*e[5mC]) [compound 379687]")
"−47.1"
>>> result_value("379691 (antisense eA*dG*dA*dT*d[5mC]*dT*dT*dG*dG*dT*dG*eA) [compound 379691]")
"−35.0"
>>> result_value("379685 (antisense eT*dG*dA*d[5mC]*d[5mC]*dA*dG*d[5mC]*dA*dG*dG*eA) [compound 379685]")
"−10.3"

Here is the next item to consider.
-- ask Return % change in SGLT2 mRNA vs saline measured with SGLT2 mRNA given this substance: 379686 (antisense eA*d[5mC]*d[5mC]*dA*d[5mC]*dA*dA*dG*d[5mC]*d[5mC]*dA*eA) [compound 379686]
-- reply −71.9

* * *

Tested on: SGLT2 mRNA
Assay: SGLT2 mRNA in kidney of Balb/c mice, twenty 1-10-1 MOE gapmers, PPS 534 and PPS 553 (Table 74)
Type: in vivo, mouse
Details: i.p. 350 nmol/kg twice per week for two weeks, primer probe set 553, normalized to cyclophilin
Procedure: Twenty 1-10-1 MOE gapmers that are complementary to human/monkey/mouse/rat SGLT2 were designed, synthesized and tested in vivo for suppression of SGLT2 mRNA levels in kidney. […] Mice were sacrificed 48 hours following the last administration and evaluated for SGLT2 mRNA levels in kidney. SGLT2 mRNA levels were determined by quantitative real-time PCR analysis according to standard procedures, using two different PCR primer probe sets, primer probe set (PPS) 534 and PPS 553. […]
Strand notation (5' to 3'): a small letter for the sugar, then the base; units joined by * are phosphorothioate-linked, units joined directly phosphodiester-linked; [ ] holds rarer units or linkages, { } end groups; capitals alone tell only the bases. e = 2'-O-(2-methoxyethyl) (MOE); [5mC] = 5-methylcytosine; d = 2'-deoxy (DNA)
# Y = % change in SGLT2 mRNA vs saline below -50 % Saline (exclusive); N = % change in SGLT2 mRNA vs saline at/above -50 % Saline

-- ask Lab log: compare recorded % change in SGLT2 mRNA vs saline with -50 % Saline; is it strictly lower for 370717 (antisense eT*dA*dG*d[5mC]*d[5mC]*dA*d[5mC]*d[5mC]*dA*dA*d[5mC]*eT) [compound 370717] ?
-- reply Y

-- ask Follow-up item: 379692 (antisense eT*dG*dT*dT*d[5mC]*d[5mC]*dA*dG*d[5mC]*d[5mC]*d[5mC]*eA) [compound 379692]
-- reply Y

-- ask Follow-up item: 379690 (antisense eA*d[5mC]*dA*dG*dG*dT*dA*dG*dA*dG*dG*e[5mC]) [compound 379690]
-- reply N

-- ask Follow-up item: 379689 (antisense eA*dG*dA*dG*d[5mC]*dG*d[5mC]*dA*dT*dT*d[5mC]*e[5mC]) [compound 379689]
-- reply N

-- ask Follow-up item: 379700 (e[5mC]*d[5mC]*dA*dG*d[5mC]*dA*dT*dG*dA*dG*dT*e[5mC]; antisense) [compound 379700]
-- reply N

-- ask Follow-up item: 379697 (e[5mC]*dT*dG*dG*d[5mC]*dA*dT*dG*dA*d[5mC]*d[5mC]*eA; antisense) [compound 379697]
-- reply N

-- ask Follow-up item: 379694 (antisense eG*dA*d[5mC]*dG*dA*dA*dG*dG*dT*d[5mC]*dT*eG) [compound 379694]
-- reply Y
